Values from patent US20240415919A1

- systemName: T1, FL9 self-peptide (source protein not named) peptide on Qa-1b (mouse)
- T1 peptide: FYAEATPML
- assayInfo: multimer staining
property: binding result

- binder: "FL9.35 (TCR, V domains shown) Valpha: AQSVTQPDARVTVSEGASLQLRCKYSYFGTPYLFWYVQYPRQGLQLLLKYYPGDPVVQGVNGFEAEFSKSNSSFHLRKASVHWSDWAVYFCAVSMMGYKLTFGTGTSLLVDP Vbeta: DSGVVQSPRHIIKEKGGRSVLTCIPISGHSNVVWYQQTLGKELKFLIQHYEKVERDKGFLPSRFSVQQFDDYHSEMNMSALELEDSAMYFCASSRTGGSAETLYFGSGTRLTVL"
  result: "recognises"
- binder: "FL9.43 (TCR, V domains shown) Valpha: AQSVTQPDARVTVSEGASLQLRCKYSYFGTPYLFWYVQYPRQGLQLLLKYYPGDPVVQGVNGFEAEFSKSNSSFHLRKASVHWSDWAVYFCAVKSTGSKLSFGKGAKLTVSP Vbeta: NSGVVQSPRYIIKGKGERSILKCIPISGHLSVAWYQQTQGQELKFFIQHYDKMERDKGNLPSRFSVQQFDDYHSEMNMSALELEDSAVYFCASSPRLGSAETLYFGSGTRLTVL"
  result: "recognises"
- binder: "FL9.5 (TCR, V domains shown) Valpha: AQSVTQPDARVTVSEGASLQLRCKYSYFGTPYLFWYVQYPRQGLQLLLKYYPGDPVVQGVNGFEAEFSKSNSSFHLRKASVHWSDWAVYFCAVKGGNYKPTFGKGTSLVVHP Vbeta: NSGVVQSPRYIIKGKGERSILKCIPISGHLSVAWYQQTQGQELKFFIQHYDKMERDKGNLPSRFSVQQFDDYHSEMNMSALELEDSAVYFCASSLTGAYEQYFGPGTRLTVL"
  result: "recognises"
